FYI, the data here is from patent US20260266848A1.

System: WT MEF EVs
Test: Quantitative LC-MS/MS proteomics of EVs from ISRIB-treated WT MEF cultures
Format: cell-based, mouse
Parameters: key: YES = protein abundance effect similar to DYT/WT
Conditions: EV protein abundance, WT + ISRIB vs WT, direction compared with DYT/WT
quantityKind: ISRIB and DYT Parallel Direction

Eif2b1 (protein, UniProt Q99LC8 1-305, looked up) Translation initiation factor …: MEDGELIEYFKSQMKGDPKMASAVAAIQTLLEFLKRDKGETLQGLRANLTYAIKTLCGVDSSVAVSSGGELFLRFISLTSLEYSDYSKCKKIMIERGELFLRRISLSRNKIANLCHTFIKDGARILTHAYSRVVLRVLEEAVAAKKRFSVYITESQPDLSGKKMAKALSHLNVPVTVVLDAAVGYIMEKADLVIVGAEGVVENGGIINKIGTNQMAVCAKAQNKPFYVVAESFKFVRLFPLNQEDVPDKFKYKADTLKSVQTGQDLKEEHPWVDYTSPSLITLLFTDLGVLTPSAVSDELIKLYL = YES
Txnl1 (protein, UniProt O43396 2-289, looked up) Thioredoxin-like protein 1: VGVKPVGSDPDFQPELSGAGSRLAVVKFTMRGCGPCLRIAPAFSSMSNKYPQAVFLEVDVHQCQGTAATNNISATPTFLFFRNKVRIDQYQGADAVGLEEKIKQHLENDPGSNEDTDIPKGYMDLMPFINKAGCECLNESDEHGFDNCLRKDTTFLESDCDEQLLITVAFNQPVKLYSMKFQGPDNGQGPKYVKIFINLPRSMDFEEAERSEPTQALELTEDDIKEDGIVPLRYVKFQNVNSVTIFVQSNQGEEETTRISYFTFIGTPVQATNMNDFKRVVGKKGESH = YES
